test: NCI Yeast Anticancer Drug Screen. Data for the mlh1 rad18 strain (AID 175); conditions: S. cerevisiae mlh1 rad18 strain growth inhibition; at 50.0 µM
The panel holds about 79,000 compounds, 15% with a hit somewhere; the sample as a whole holds those more often. Calls of active or inactive are those of the source. Cut-off read from the data, not from the text of the source: active = growth inhibition above about 70%; inactive = the rest.
Classes used: active, inactive

| COMPOUND | ASSIGNED_CLASS |
| --- | --- |
| CCOC(=O)C(NC(=O)CC)(Nc1ccccc1OC)C(F)(F)F (stereo not drawn) | inactive |
| O=C1CCCCCCN1 | inactive |
| COc1ccc2c(ccc[n+]2CC(=O)c2ccc(Cl)cc2)c1 | inactive |
| O=C1CCCS(=O)(=O)CCC1 | inactive |
| COc1ccc(Cc2ccc(CO)cc2)cc1 | inactive |
| C(/C=C/c1ccccc1)=C1SCCCS1 | inactive |
| CCc1ccc(COC(=O)NC)nc1 | inactive |
| C/C=C(/c1ccccc1)c1ccc(N(C)C)cc1 | inactive |
| CC1=C(C#N)C(C)(C)c2ccccc21 | inactive |
| O=c1ccc2cc(Br)ccc2o1 | inactive |
| COc1cc(CC2c3cccc(Oc4ccc(C)cc4)c3CCN2C)ccc1Oc1ccc(C)cc1 (stereo not drawn) | active |
| Clc1cccc2nsnc12 | inactive |
| Cc1ccc(S(=O)(=O)Nn2c(O)c(C#N)c(-c3ccc([N+](=O)[O-])cc3)c(C#N)c2=O)cc1 | inactive |

---

// reported growth inhibition for each item listed
assay: NCI Yeast Anticancer Drug Screen. Data for the sgs1 mgt1 strain (AID 161);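 note: 0% = growth of cultures given vehicle only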; settings: S. cerevisiae sgs1 mgt1 strain, at 50.0 µM, hits give high values
The panel holds about 79,000 compounds, 15% with a hit somewhere; the sample as a whole holds those more often.
MEASURED_QUANTITY: growth inhibition (%)

| MOLECULE | VAL |
| --- | --- |
| Nc1ncnc2c1ccn2Cc1c(F)cccc1Cl | -10.9 |
| O=C(NCc1ccncc1)Nc1ccc(Cc2ccc(NC(=O)NCc3ccncc3)cc2)cc1 | 0.2 |
| N=c1oc2ccccc2cc1-c1nc2ccccc2c(=O)[nH]1 | 4.5 |
| CNc1ncnc2nc(C)c(C)nc12 | -7.4 |
| CCOCCOCCOCOCCOCCOCC | 8.4 |
| NC(c1ccccc1)(c1ccccc1)c1ccccc1 | 43.9 |
| CCC(CC)C(=O)OC1CCCCC1C(C)C (configuration not stated) | -0.2 |
| Cc1ncc(CSCC(=O)O)c(N)n1 | -5.05 |
| CN1CCc2ccccc2/C(=C(/O)c2ccccc2)C1=O | 12.3 |
| NC(=O)C(=O)C(c1ccccc1)S(=O)(=O)Cc1ccccc1 (configuration not stated) | -40.3 |
| CCOC(=O)NNC(C)(C)C | 4.5 |
| COC(=O)c1c(C(=O)OC)c2ccccn2c1-c1cc(OC)c(Br)c(=O)o1 | -7.6 |
| Cc1cc(N(CCC#N)CCC#N)ccc1/C=C1N=C(/C=C/c2ccccc2)N(c2ccc(S(N)(=O)=O)cc2)C\1=O | -18.8 |
| CC(C)(C)c1nc2c(o1)C(=Nc1ccc(F)cc1)c1ccccc1C2=O | 14.7 |
| CCCc1nc(N)[nH]c(=O)c1I | -15.1 |
| CC[n+]1c(C)sc2cc(Cl)c(-c3ccccc3)cc21 | 30.4 |
| N#Cc1c(-c2ccccc2)cc(-c2ccccc2)[nH]c1=O | 16.4 |
| Cc1cc2ccccc2n1S(=O)(=O)c1ccccc1 | 18.4 |
| CC1=CCC2N=C(c3ccccc3)CC2(C)C1=O (configuration not stated) | 24.3 |
| CSc1nsc(SC)c1C(N)=O | 15.3 |
| Cn1nnc(CCCl)n1 | -8.15 |
| COc1ccc(C2(O)c3ccccc3C(=O)c3ccc(OC)cc32)cc1 (configuration not stated) | 4.15 |
| Oc1ccccc1-c1nc2ccccc2s1 | 7.85 |
| Nc1ccc(N2N=C(N3CCCC3)CC2=O)cc1 | -10.8 |
| N#CC12CC3CC(CC(C3)C1)C2 | -15 |
| COC(=O)[C@@]12OC[C@]34[C@H]([C@@H](O)[C@@H]1O)[C@@]1(C)CC(=O)C(O)=C(C)[C@@H]1C[C@H]3OC(=O)[C@H](OC(=O)/C=C(\C)C(C)CO)[C@@H]24 (some centres not stated) | -13.3 |
| CC(Cl)CNC(=O)Nc1cccc2c1CCCC2 (configuration not stated) | -1.9 |
| O=C(Nc1ccccc1Cl)c1ccc(F)cc1 | 15 |
| CC1(C)OC2OC(CI)C3OC(C)(C)OC3C2O1 (configuration not stated) | -1.75 |
| CN1N(c2ccccc2)C(=O)C2=NC=C(C#N)C(=N)C21C (configuration not stated) | 24.6 |
| N#Cc1cccc(N2C(=O)c3c(c(-c4ccccc4)c(-c4ccc(Sc5ccc(-c6c(-c7ccccc7)c7c(c(-c8ccccc8)c6-c6ccccc6)C(=O)N(c6cccc(C#N)c6)C7=O)cc5)cc4)c(-c4ccccc4)c3-c3ccccc3)C2=O)c1 | -41 |
| Brc1ccc(CN(Cc2ccccc2)Cc2ccccc2)cc1 | 1.55 |
| CCCCc1nc(CCCC)nc(CCCC)n1 | -12.8 |
| C=C(C)C(=O)O[C@@H]1C[C@@]2(C)O[C@@H]2C[C@H](O)/C(C)=C/[C@H]2OC(=O)C(=C)[C@@H]21 | -22.5 |
| N=[N+]=CC(=O)OCC(N)C(=O)O (configuration not stated) | 80.2 |
| C1CSC[C@H]2COC[C@@H](CSCCS1)S2 | -2.55 |
| O=C(O)CC1OCC=C2C[N+]3([O-])CCC45c6ccccc6NC4C1C2CC53 (configuration not stated) | -16.1 |
| NCC1CC1 | 9.75 |
| CCOC(=O)C(NC(=S)Cc1ccccc1)C(=O)OCC | -4.8 |
| COc1cc(C2C3=C(COC3=O)OC(C)(C)Oc3cc4c(cc32)OCO4)cc(OC)c1OC (configuration not stated) | 14.8 |
| O=[N+]([O-])c1ccc(-c2ccccc2)c([N+](=O)[O-])c1 | -29.8 |
| CC1(C)OC2(CC1C1(C)C=CC(=O)O1)CC1C(O)(CCC34CC13C(=O)OC4c1ccoc1)O2 (configuration not stated) | 3.15 |
| CCOC(=O)CCCN | -6.95 |
| O=C(OCC(OC(=O)c1ccccc1)C(OC(=O)c1ccccc1)C(OC(=O)c1ccccc1)c1nn[nH]n1)c1ccccc1 (configuration not stated) | 59.4 |
| CC(=O)C1SCC[S+]1C (configuration not stated) | -10.6 |
| C(=C/c1ccccc1)/C=N/N1CCN(/N=C/C=C/c2ccccc2)CC1 | 14.8 |
| O=C(O)/C(=C\c1ccccc1Cl)S(=O)(=O)c1ccccc1 | -12.6 |
